- experiment_notes: melting temperature; fluorescence melt of hairpins on a sequencing array, two-state fit, raised by 9.35 °C to match UV melts
- measurement_parameters: sodium 0.088 M
Rule: Tm under 40 °C gives NOT MET, otherwise MET.

>>> assigned_class("GCGGGTGGCCGC ((((....))))")
"MET"
>>> assigned_class("GGACGGTCGAAAGACTCC (((..(((....))))))")
"NOT MET"
>>> assigned_class("GGTCAAACGAAAGTTACC (((..(((....))))))")
"NOT MET"
>>> assigned_class("GGACGAGGAAACCCGTCC (((((.(....).)))))")
"MET"
>>> assigned_class("CGCCACGGAAACGTGCG (((.(((....))))))")
"MET"

Taken from the array DNA melting data of Ke et al. (doi:10.1101/2024.01.08.574731).
